Taken from patent US20220267268A1.

Target: 5-HT2B receptor (Homo sapiens, UniProt P41595)
Construct: host or cells: CHO-K1
Sequence (P41595 whole entry): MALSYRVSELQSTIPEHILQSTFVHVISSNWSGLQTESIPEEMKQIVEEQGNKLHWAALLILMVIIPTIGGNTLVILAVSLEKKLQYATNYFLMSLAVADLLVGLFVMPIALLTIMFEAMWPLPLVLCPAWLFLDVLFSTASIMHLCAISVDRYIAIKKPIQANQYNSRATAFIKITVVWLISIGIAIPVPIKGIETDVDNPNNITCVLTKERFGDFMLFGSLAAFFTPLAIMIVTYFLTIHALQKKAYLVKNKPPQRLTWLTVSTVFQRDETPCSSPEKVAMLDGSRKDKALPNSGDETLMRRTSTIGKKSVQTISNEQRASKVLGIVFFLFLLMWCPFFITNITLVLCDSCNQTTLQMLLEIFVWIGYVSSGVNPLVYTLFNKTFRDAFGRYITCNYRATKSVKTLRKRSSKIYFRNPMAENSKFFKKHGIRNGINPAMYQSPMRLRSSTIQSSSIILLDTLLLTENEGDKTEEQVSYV
Assay: 5-HT2B receptor binding, ligand displacement assay with 3H-LSD radioligand
Conditions: 100 nM compound, human receptor in CHO-K1
Protocol: 5-HT2B receptor binding (performed at Eurofins Panlabs Taiwan, Ltd.) to human receptor protein expressed in CHO-K1 cells was determined in a ligand displacement assay using ^3H-lysergic acid diethylamide (LSD) as radioligand and ketanserine as a standard reference compound, or alternatively*, with ^3H-mesulergine and SB 206553 as reference. Data is presented as % displacement of radioligand at indicated compound concentrations, see Table 1.
Counter-ions that a name gives are not always drawn.
Form field: inhibition at 0.1 µM (one value per entry).
Report as a plain number; the unit % is understood.

CC1CN(C(=N)N)c2ccc3c(Cl)cccc3c21.Cl (stereo not drawn) [Example 11, hydrochloride] = 103
CCCc1cccc2c3c(ccc12)N(C(=N)N)CC3C (stereo not drawn) [Example 43, hydrochloride] = 96

Which inhibition at 0.1 µM is reported for this compound? CC1CN(C(=N)N)c2ccc3c(C(F)(F)F)cccc3c21 (stereo not drawn)
92

Could you share which inhibition at 0.1 µM value was measured for CC1CN(C(=N)NCc2ccc(Cl)cc2)c2ccc3ccccc3c21 (stereo not drawn) [Example 9, hydrochloride] ?
95

What measured inhibition at 0.1 µM goes with COc1cc2c(c3ccccc13)C(C)CN2C(=N)N (stereo not drawn) [Example 44, hydrochloride] ?
70

Entry CC1CN(C(=N)N)c2ccc3ccccc3c21.Cl (stereo not drawn) [Example 3, hydrochloride] : reported inhibition at 0.1 µM = ?
90

Looking for the measured inhibition at 0.1 µM of CC1CN(C(=N)NCc2ccc(F)cc2)c2ccc3c(Br)cccc3c21 (stereo not drawn) , can you help?
98

Would you kindly share the measured inhibition at 0.1 µM for CC1CN(C(=N)NCc2ccccc2)c2ccc3ccccc3c21 (stereo not drawn) [Example 8, hydrochloride] ?
99

I'd like to know its inhibition at 0.1 µM. The compound in question is CCCCNC(=N)N1CC(C)c2c1ccc1ccccc21 (stereo not drawn) [Example 7, hydrochloride]
96
